Origin of measurements: paper PMC8809517

Target: T1, GFP-9S library array, motif 4 ND N98L (synthetic construct, N98L)
T1 chain: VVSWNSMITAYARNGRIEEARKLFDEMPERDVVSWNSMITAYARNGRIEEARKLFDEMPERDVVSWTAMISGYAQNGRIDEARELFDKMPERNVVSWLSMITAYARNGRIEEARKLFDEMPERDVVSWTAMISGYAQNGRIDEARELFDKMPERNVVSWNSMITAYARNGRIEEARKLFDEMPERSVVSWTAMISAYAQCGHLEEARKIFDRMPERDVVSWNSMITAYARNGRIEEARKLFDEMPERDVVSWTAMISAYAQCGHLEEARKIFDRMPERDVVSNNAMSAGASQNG
Assay: high-throughput RNA pulldown from lysate on Ni-NTA beads; HRP: 50 mM Tris pH 8, 150 mM NaCl, 1 mM beta-mercaptoethanol, 50 ug/ml BSA, 3 ug/ml yeast RNA, 0.5% heparin; ITC and FP: Tris pH 8, 200 mM KCl, 5% glycerol; MST: 50 mM Tris pH 8, 200 mM NaCl, 1 mM DTT, BSA, heparin, 0.05% Tween 20
Conditions: tags: N-terminal His-eGFP; label: 5' Cy5
Measured Kd accompanies every entry in the list below.
The answer is to be given in nM; state only the numeric part.

AUUACACGUGA (ssRNA) [Cy5-rpoA]	214

Then there is this binder:
Query: Fill in: Kd of AUUAGACGUGA (ssRNA) [Cy5-rpoA-G] is ___
Reply: 183
